test system: Plasmodium berghei; assay: Screen against P. berghei liver stage (PbLuc), transformed with Luciferase, at 10uM; assay type: functional, HepG2; conditions: tested at 10 uM
In all, about 69,000 compounds went through this assay and about 8,600 (12%) showed an effect of 50% or more. This excerpt belongs to a sample that is enriched for strong results.
Parameter measured: INHIBITION (%)
Numeric answer only, unit % assumed.

Query: Request the reported INHIBITION associated with `CS(=O)(=O)N[C@@H]1CCO[C@]2(CCN(C(=O)C3=CCCC3)C2)C1`
Reply: 21

Query: Request the reported INHIBITION associated with `CCn1cc(N)c(-c2nnc3n2CCC3)n1`
Reply: 24.8

Query: Request the reported INHIBITION associated with O=C(c1ccoc1)N1CCOC2(COCCN(c3ncccn3)C2)C1 (stereo unspecified)
Reply: 46.6

Query: Request the reported INHIBITION associated with `Cc1cncc(C(=O)N2CC[C@@]3(C[C@H](NS(C)(=O)=O)CCO3)C2)c1`
Reply: 54.4

Query: Request the reported INHIBITION associated with O=C(NC1CCCc2nc(N3CCOCC3)ncc21)C1CCCC1 (stereo unspecified)
Reply: -5.71

Query: Request the reported INHIBITION associated with `CS(=O)(=O)N[C@H]1CCO[C@]2(CCN(CC3CCOCC3)C2)C1`
Reply: -44.4

Query: Request the reported INHIBITION associated with `CS(=O)(=O)N[C@@H]1CCO[C@]2(CCN(C(=O)c3cnccn3)C2)C1`
Reply: 32.4

Query: Request the reported INHIBITION associated with `Cc1cccc(CN2C(=O)CCC23CCN(C(=O)NC(C)C)CC3)n1`
Reply: -40.5

Query: Request the reported INHIBITION associated with CC(C)(CN1CCC(Cc2ccc(CO)cc2)C1)N1CCOCC1 (stereo unspecified)
Reply: 23.5

Query: Request the reported INHIBITION associated with Cc1nc(Nc2nnc(C)s2)cc(C2CCCN2C)n1 (stereo unspecified)
Reply: 21.6

Query: Request the reported INHIBITION associated with `Cc1cc(C(=O)N2CC[C@@]3(C[C@@H](NS(C)(=O)=O)CCO3)C2)no1`
Reply: 69.5

----------
system: Plasmodium berghei; assay: Screen against P. berghei liver stage (PbLuc), transformed with Luciferase, at 10uM; format: functional, HepG2; settings: tested at 10 uM
Out of some 69,000 compounds screened, about 8,600 (12%) showed an effect of 50% or more. Many of the other results were omitted from the sample, so strong results are more common in it than they were.
Use 20% as the dividing line for INHIBITION, with the line itself on the Criterion met side and lower values as Criterion not met.

Query: Kindly determine if INHIBITION recorded for `Cc1ccc(C(=O)N2CCN3C[C@H](Oc4cccnc4)C[C@H]3C2)cn1` is above or exactly 20%.
Reply: Criterion met

Query: Kindly determine if INHIBITION recorded for Cc1ccccc1SC1CCN(C(=O)C2[C@H]3CNC[C@@H]23)CC1 (stereo partly specified) is above or exactly 20%.
Reply: Criterion met

Query: Kindly determine if INHIBITION recorded for Cc1ccccc1SC1CCN(C(=O)C2CNCC(=O)N2)CC1 (stereo unspecified) is above or exactly 20%.
Reply: Criterion not met

Query: Kindly determine if INHIBITION recorded for Cc1cc(C(=O)N2CCCC(c3ccc(C(=O)O)cc3)C2)c(C)o1 (stereo unspecified) is above or exactly 20%.
Reply: Criterion not met

Query: Kindly determine if INHIBITION recorded for `Cc1cccc(SC2CCN(C(=O)CCCS(N)(=O)=O)CC2)c1` is above or exactly 20%.
Reply: Criterion met

Query: Kindly determine if INHIBITION recorded for CN(Cc1noc(C2CC2)n1)C1CCN(CCS(C)(=O)=O)C1 (stereo unspecified) is above or exactly 20%.
Reply: Criterion not met

Query: Kindly determine if INHIBITION recorded for `Cc1noc(C)c1CN1CCO[C@H]2CN(C(=O)C3CCOCC3)C[C@H]21` is above or exactly 20%.
Reply: Criterion met

Query: Kindly determine if INHIBITION recorded for `Cc1ccccc1SC1CCN(C(=O)CCCS(N)(=O)=O)CC1` is above or exactly 20%.
Reply: Criterion met

Query: Kindly determine if INHIBITION recorded for CC(=O)N1CCCC2(CCN(c3ccccc3)C2=O)C1 (stereo unspecified) is above or exactly 20%.
Reply: Criterion not met

Query: Kindly determine if INHIBITION recorded for O=C1CCC2(CCCN(CCc3ccccc3)C2)N1Cc1cccnc1 (stereo unspecified) is above or exactly 20%.
Reply: Criterion met

Query: Kindly determine if INHIBITION recorded for `O=C(Nc1ccc(N2CCCCC2)nc1)N1CCc2sccc2C1` is above or exactly 20%.
Reply: Criterion not met

----------
test system: Plasmodium berghei; assay: Screen against P. berghei liver stage (PbLuc), transformed with Luciferase, at 10uM; type: functional, HepG2; conditions: tested at 10 uM
Hit rate of the full screen: of about 69,000 compounds, about 8,600 (12%) showed an effect of 50% or more. What follows is part of a selection rich in strong results, with near analogues and random picks from the rest.
Parameter measured: INHIBITION (%)
Numeric answer only, unit % assumed.

Query: Request the reported INHIBITION associated with `Cc1ccc(C(=O)N2CCC3(CCN(C(=O)c4cccnc4)C3)CC2)o1`
Reply: 34.7

Query: Request the reported INHIBITION associated with `CCCn1nc(C)c(CNS(=O)(=O)NCc2ccccc2)c1C`
Reply: -8.66

Query: Request the reported INHIBITION associated with Cc1cccc(N2CCC3(CCCN(C(=O)c4cccnc4)C3)C2)n1 (stereo unspecified)
Reply: -19.1

Query: Request the reported INHIBITION associated with `O=C(c1cccnc1)N1CCC2(CCN(C(=O)c3ccco3)CC2)C1`
Reply: 59.3

Query: Request the reported INHIBITION associated with `O=C(N1CCCC1)N1CCC2(CC1)CN(c1cccnc1)C(=O)CO2`
Reply: 82.9

Query: Request the reported INHIBITION associated with `CS(=O)(=O)N1CCOCC2(CCN(C(=O)c3cccnc3)CC2)C1`
Reply: 18.5

Query: Request the reported INHIBITION associated with `CC(=O)NCC(=O)N1CCC2(CC1)CN(c1cccnc1)C(=O)CO2`
Reply: 17.1

Query: Request the reported INHIBITION associated with `CCSc1ncc(CN2CCN(c3nc(C)ncc3C)CC2)cn1`
Reply: 56.6

Query: Request the reported INHIBITION associated with `CCSc1ncc(CN2CCN(c3nc(C)cnc3C)CC2)cn1`
Reply: -50.8

Query: Request the reported INHIBITION associated with Cc1ccc(N2CCC3(CCCN(C(=O)c4cccnc4)C3)C2)nn1 (stereo unspecified)
Reply: 53.5

Query: Request the reported INHIBITION associated with `CC(C)C[C@H](N)c1nnc(SCC(N)=O)o1`
Reply: -21.4

----------
tested on: Plasmodium berghei; experiment: Screen against P. berghei liver stage (PbLuc), transformed with Luciferase, at 10uM; type: functional, HepG2; conditions: tested at 10 uM
Screen size: about 69,000 compounds; about 8,600 (12%) showed an effect of 50% or more. The list comes from a sample in which strong results are over-represented; it also holds close analogues and randomly drawn compounds.
Parameter measured: INHIBITION (%)
Numeric answer only, unit % assumed.

Query: Request the reported INHIBITION associated with `Cn1nc2c(cc1=O)CN(Cc1nc(-c3cccs3)no1)CC2`
Reply: 26.1

Query: Request the reported INHIBITION associated with `CCn1nc2c(cc1=O)CN(Cc1nc(-c3ccsc3)no1)CC2`
Reply: 7.7

Query: Request the reported INHIBITION associated with CN(C)C(=O)c1cccc(CN2CCN(CC(O)C(C)(C)C)CC2)c1 (stereo unspecified)
Reply: -13.5

Query: Request the reported INHIBITION associated with `CC(C)c1ccc(OCCNC(=O)N2CCS(=O)(=O)CC2)cc1`
Reply: -12.21

Query: Request the reported INHIBITION associated with `COCCc1noc(CN2CCc3nn(C(C)C)c(=O)cc3C2)n1`
Reply: 48.2

Query: Request the reported INHIBITION associated with `CCc1ncc2c(n1)CN(Cc1nc(-c3cccs3)no1)CC2`
Reply: 28.8

Query: Request the reported INHIBITION associated with `O=C(NCCOc1ccc(C(F)(F)F)cn1)c1ccoc1`
Reply: 57.5

Query: Request the reported INHIBITION associated with `Cc1ccoc1C(=O)NCCOc1ccc(C(F)(F)F)cn1`
Reply: 31.7

Query: Request the reported INHIBITION associated with `CCCn1nc2c(cc1=O)CN(Cc1nc(-c3ccoc3)no1)CC2`
Reply: 61.1

Query: Request the reported INHIBITION associated with `Cn1nc2c(cc1=O)CN(Cc1nc(-c3ccoc3)no1)CC2`
Reply: -7.16

Query: Request the reported INHIBITION associated with `Cc1ccc(-c2noc(CN3CCc4nn(C)c(=O)cc4C3)n2)cc1`
Reply: -11.4

Value source: ChEMBL document CHEMBL4513216
